Entry source: PubChem BioAssay

- protocolDetails: Restrictive medium S. cerevisiae growth inhibition, OD615, pilot screen of yeast lifespan reduction project, restrictive growth control (AID 706);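 note: modified DeaD lifespan yeast strain shifted to restrictive glucose medium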
- protocolConditions: OD615, 48 h, at 10 µM, stronger effect = higher value
Activity calls are given as the source filed them.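 Rule for the calls: active = growth inhibition above a set limit, 3 SD over mean compound inhibition, in both replicates (cut at about 43% in these data); inconclusive = above the limit in only one replicate; inactive = at or below the limit in both replicates.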
Assign growth inhibition to each entry below.

Prompt: // query growth inhibition value for entry COc1cccc(CNC(=O)C2CCN(S(=O)(=O)c3cccc4cccnc34)CC2)c1
Completion: -2.92% (inactive)

Prompt: // query growth inhibition value for entry CCCC(=O)c1cc(F)c(N2CCN(CCC#N)CC2)cc1C
Completion: -15.5% (inactive)

Prompt: // query growth inhibition value for entry CCCCCC(C)n1[nH]c(=O)c2c(C)cc(C)nc21 (centres undefined)
Completion: 17.6% (inactive)

Prompt: // query growth inhibition value for entry CCOC(=O)c1c(O)c2c(n(Cc3ccco3)c1=O)CCCC2
Completion: 4.38% (inactive)

Prompt: // query growth inhibition value for entry COC(=O)c1c(NC(=O)Cc2cccs2)sc(C)c1C
Completion: 6.72% (inactive)

Prompt: // query growth inhibition value for entry CCn1c(=O)c2c3c(sc2n2c(SCc4ccc(F)cc4)nnc12)CCCC3
Completion: -16.7% (inactive)

Prompt: // query growth inhibition value for entry Cc1cccc(N2CCN(S(C)(=O)=O)CC2)c1C
Completion: -14.1% (inactive)

Prompt: // query growth inhibition value for entry Cc1cc(C)n2c(SCC#N)nnc2n1
Completion: -13% (inactive)

Prompt: // query growth inhibition value for entry NC(=O)C1CCN(C(=O)C2CCN(S(=O)(=O)c3ccccc3)CC2)CC1
Completion: 12.3% (inactive)

---

- protocolDetails: reversal of MRP1-mediated doxorubicin resistance, pilot screen, H69AR cells, doxorubicin co-treatment (AID 601)
- protocolConditions: H69AR cells + 2 uM doxorubicin, CellTiter-Glo, 72 h; measured here: viability with 2 uM doxorubicin; at 10 µM; stronger effect = lower value
reportedMetric: viability (%)
Numeric only. Scale: %

Prompt: // query viability value for entry COc1ccc(C(=O)N(CCCO)Cc2cc3c(C)ccc(C)c3[nH]c2=O)cc1OC
Completion: 82.9

Prompt: // query viability value for entry CCC1(CC)NC(=O)NC1=O
Completion: 90.1

Prompt: // query viability value for entry O=C(Nc1nc(-c2ccccc2)cs1)C1CCCCN1S(=O)(=O)c1ccccc1 (stereo not given)
Completion: 92

Prompt: // query viability value for entry NC(N)=NS(=O)(=O)c1ccc(N)cc1
Completion: 102

Prompt: // query viability value for entry COC(=O)CN(c1ccc(C)c(Cl)c1)S(C)(=O)=O
Completion: 90.5

Prompt: // query viability value for entry CCN(C(=O)c1cc2cc3ccc(C)cc3nc2o1)c1ccc(OC)cc1
Completion: 96

Prompt: // query viability value for entry CC(C)(C)OC(=O)N1CCC(C(=O)N2CCCCCC2)CC1
Completion: 86.2

Prompt: // query viability value for entry O=C(NCC1CCCO1)c1ccccc1-c1nc(-c2ccc(Cl)cc2)no1 (stereo not given)
Completion: 88.1

Prompt: // query viability value for entry CCn1c(=O)cc(OCC(=O)NC2CCCCC2)c2ccccc21
Completion: 77.5

Prompt: // query viability value for entry Cc1ccc(C)c(OCCCC(C)(C)C(=O)O)c1
Completion: 91.5

Prompt: // query viability value for entry O=C(Cn1cnc2c(nnn2Cc2ccccc2)c1=O)c1ccc(Cl)cc1
Completion: 88.6

Prompt: // query viability value for entry CCC(C)(C)NC(=O)CN(Cc1ccc2c(c1)OCO2)C(=O)CCC(=O)Nc1ccccn1
Completion: 90.1

Prompt: // query viability value for entry C/C(NC1CCCC1)=C(/C#N)C(N)=O
Completion: 101

Prompt: // query viability value for entry O=C(CCN1CCN(C(=O)c2ccco2)CC1)Nc1ccc(F)cc1
Completion: 90.9

Prompt: // query viability value for entry COc1cccc(/C=N/n2c(C)nc3ccccc32)c1OC
Completion: 88.3
